Origin of values: ChEMBL document CHEMBL3407435

- assay_target: UniProtKB P21397
- Sequence (P21397 whole entry): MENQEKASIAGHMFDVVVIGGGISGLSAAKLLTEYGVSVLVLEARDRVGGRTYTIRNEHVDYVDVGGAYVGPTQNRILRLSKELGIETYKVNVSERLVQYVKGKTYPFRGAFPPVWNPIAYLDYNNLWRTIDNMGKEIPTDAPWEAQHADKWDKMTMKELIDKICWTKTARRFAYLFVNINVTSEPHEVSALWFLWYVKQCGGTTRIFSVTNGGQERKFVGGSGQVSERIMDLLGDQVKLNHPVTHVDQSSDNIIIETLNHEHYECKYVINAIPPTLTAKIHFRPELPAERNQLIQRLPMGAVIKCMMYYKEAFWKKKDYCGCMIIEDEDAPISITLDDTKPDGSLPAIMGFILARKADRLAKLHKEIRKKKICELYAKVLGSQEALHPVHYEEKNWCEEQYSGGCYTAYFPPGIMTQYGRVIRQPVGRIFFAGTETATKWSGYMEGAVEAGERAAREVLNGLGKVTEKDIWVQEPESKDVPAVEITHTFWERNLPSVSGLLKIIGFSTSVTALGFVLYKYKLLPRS
- test_name: Reversible inhibition of human MAO-A expressed in baculovirus infected BTI insect cells
endpoint: IC50 (µM)

1) C#CCN(C)Cc1cc2cc(OCCCC3CCN(Cc4ccccc4C)CC3)ccc2n1C	6.3
